Just for reference, PubChem BioAssay (EPA / NIEHS) is where these values come from.

# ASSAY_SUMMARY: TOX21_p53_BLA_p2_viability: Viability Assessment in the Tox21 HCT-116 p53 Agonism Beta-lactamase Assay, Phase 2 (AID 2283591);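 further: compound exposure lasted 16 h at 37 °C; actives lower the ATP signal meaning cytotoxicity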
Inconclusive results are not listed. Calls of active or inactive are those of the source. How the source made its calls: active means hit-call score of the fitted dose curve at least 0.9, where 1 is the maximum; inconclusive means response in the unintended direction; inactive means score below 0.9.
Possible outcomes: t (active), f (inactive)

[[record]]
compound = "CCOc1cc([N+](=O)[O-])c(OCC)cc1N1CCOCC1"
class = "f"

[[record]]
compound = "CCCCCCCCN"
class = "f"

[[record]]
compound = "CC(C)(C)OC(=O)c1ccccc1C(=O)O"
class = "f"

[[record]]
compound = "CC(C)NCC(O)COc1ccc(COCCOC(C)C)cc1 (configuration not stated)"
class = "f"

[[record]]
compound = "CCCCC(=O)OCC(=O)[C@H]1[C@H](C)C[C@H]2[C@@H]3C[C@H](F)C4=CC(=O)C=C[C@]4(C)[C@@]3(F)[C@@H](O)C[C@@]21C"
class = "f"

[[record]]
compound = "C[C@H]1C[C@H]2[C@@H]3CCC4=CC(=O)C=C[C@]4(C)[C@H]3C(=O)C[C@]2(C)[C@@]1(O)C(=O)CO"
class = "f"

[[record]]
compound = "CC1(C)CCC(NC(=O)[C@@H](N)CCC(=O)O)CC1"
class = "f"

[[record]]
compound = "Cc1cc(Nc2ccccc2C(=O)O)ccc1Cl"
class = "f"

[[record]]
compound = "CCN1/C(=C/C=C/c2sc3ccccc3[n+]2CC)Sc2ccccc21"
class = "f"

[[record]]
compound = "COc1cc(C(=S)N2CCOCC2)cc(OC)c1OC"
class = "f"

[[record]]
compound = "O=C1NC2CCCCN2C12CCN(CCCN1c3ccccc3CCc3ccc(Cl)cc31)CC2 (configuration not stated)"
class = "t"

[[record]]
compound = "OC[C@H](Cc1cccc(O)c1)[C@H](CO)Cc1cccc(O)c1"
class = "f"

[[record]]
compound = "C=CC(=O)OCCCl"
class = "f"

[[record]]
compound = "CCCCCCCCCCCCCCCCSCC(COC)COP(=O)([O-])OCC[N+](C)(C)C (configuration not stated)"
class = "f"

[[record]]
compound = "O=[N+]([O-])c1ccc(F)cc1F"
class = "f"

[[record]]
compound = "CC[N+](CC)(CC)CCC(O)(c1ccccc1)C1CCCCC1 (configuration not stated)"
class = "f"

[[record]]
compound = "Cc1nc(-c2ccc(OCC(C)C)c(C#N)c2)sc1C(=O)O"
class = "f"

[[record]]
compound = "Cc1cc(C)c(N=Nc2c(O)c(S(=O)(=O)O)cc3cc(S(=O)(=O)O)ccc23)cc1C"
class = "f"

[[record]]
compound = "COCCCC/C(=N\\OCCN)c1ccc(C(F)(F)F)cc1"
class = "f"

[[record]]
compound = "OCc1cc(C(O)CNCCCCCCOCCCCc2ccccc2)ccc1O (configuration not stated)"
class = "f"

[[record]]
compound = "CCC(C)Nc1ccc(NC(C)CC)cc1 (configuration not stated)"
class = "t"

[[record]]
compound = "O=C(C=Cc1ccc(O)c(O)c1)O[C@@H]1C[C@@](OC(=O)C=Cc2ccc(O)c(O)c2)(C(=O)O)C[C@@H](O)[C@@H]1O"
class = "f"

[[record]]
compound = "C=C1/C(=C\\C=C2/CCC[C@]3(C)[C@@H]([C@H](C)CCCC(C)C)CC[C@@H]23)C[C@@H](O)C[C@@H]1O"
class = "f"

[[record]]
compound = "CC(C)CC=O"
class = "f"

[[record]]
compound = "CCN(CC)CCOC(=O)c1cccnc1"
class = "f"

[[record]]
compound = "O=[N+]([O-])c1c(Cl)cccc1-c1c[nH]cc1Cl"
class = "f"

[[record]]
compound = "NC(=O)NC(=O)Cc1ccccc1"
class = "f"

[[record]]
compound = "NC(=O)c1ccccc1C(N)=O"
class = "f"

[[record]]
compound = "C=CCOCC(CC)(CO)COCC=C"
class = "f"

[[record]]
compound = "OC[C@H]1O[C@@H](O[C@H]2[C@H](O)[C@@H](O)C(O)O[C@@H]2CO)[C@H](O)[C@@H](O)[C@@H]1O (some centres not stated)"
class = "f"

[[record]]
compound = "C(=C\\c1ccccc1)/CN1CCN(C(c2ccccc2)c2ccccc2)CC1"
class = "f"

[[record]]
compound = "CNC(=O)OCc1cccc(COC(=O)NC)n1"
class = "f"

[[record]]
compound = "NC(=O)C(=O)NN=Cc1ccc([N+](=O)[O-])o1"
class = "f"

[[record]]
compound = "Clc1ccc2n[nH]nc2c1"
class = "f"

[[record]]
compound = "Cc1cccc2nccnc12"
class = "f"

[[record]]
compound = "CCCCC[C@H](O)/C=C/[C@H]1[C@H](O)CC(=O)[C@@H]1C/C=C\\CCCC(=O)O"
class = "f"

[[record]]
compound = "CC1(C)S[C@@H]2[C@H](NC(=O)C(C(=O)O)c3ccccc3)C(=O)N2[C@H]1C(=O)O (some centres not stated)"
class = "f"

[[record]]
compound = "COc1ccc(C(=O)c2ccc(OC)cc2O)c(O)c1"
class = "f"

[[record]]
compound = "OCC(S)CS (configuration not stated)"
class = "f"

[[record]]
compound = "CN1CCN(CCCN2c3ccccc3Sc3ccc(C(F)(F)F)cc32)CC1"
class = "t"

[[record]]
compound = "O=C1OC(CN2CCOCC2)CN1N=Cc1ccc([N+](=O)[O-])o1 (configuration not stated)"
class = "f"

[[record]]
compound = "CC(C)n1c(/C=C/[C@@H](O)C[C@@H](O)CC(=O)O)c(-c2ccc(F)cc2)c2ccccc21"
class = "f"

[[record]]
compound = "O=C(O)COc1ccc(C(=O)c2cccs2)c(Cl)c1Cl"
class = "f"

[[record]]
compound = "CC(=O)OCC(=O)[C@@]1(O)[C@H](OC(C)=O)C[C@H]2[C@@H]3CCC4=CC(=O)C=C[C@]4(C)[C@@]3(F)[C@@H](O)C[C@@]21C"
class = "f"

[[record]]
compound = "COc1cc(O)cc(O)c1"
class = "f"

[[record]]
compound = "Oc1ccc(O)c2c(O)cccc12"
class = "f"

[[record]]
compound = "CCC(O)C(C)(C)C (configuration not stated)"
class = "f"

